MEASUREMENT TARGET: human D2 receptor (Homo sapiens, UniProt P14416)
Construct: expressed in transfected cells
Sequence (P14416 whole entry): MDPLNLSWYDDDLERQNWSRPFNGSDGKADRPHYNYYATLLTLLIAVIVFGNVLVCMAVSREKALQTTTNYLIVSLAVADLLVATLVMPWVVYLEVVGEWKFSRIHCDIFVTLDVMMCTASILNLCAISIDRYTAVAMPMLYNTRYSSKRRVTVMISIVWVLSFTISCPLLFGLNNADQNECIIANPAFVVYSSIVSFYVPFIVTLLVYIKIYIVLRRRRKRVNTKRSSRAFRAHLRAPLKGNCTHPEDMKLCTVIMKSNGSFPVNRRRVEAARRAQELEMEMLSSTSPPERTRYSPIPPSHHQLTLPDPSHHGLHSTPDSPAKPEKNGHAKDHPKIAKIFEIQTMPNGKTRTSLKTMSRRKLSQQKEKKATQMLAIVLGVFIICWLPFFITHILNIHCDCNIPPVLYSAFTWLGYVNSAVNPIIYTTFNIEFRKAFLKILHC
PROTOCOL TEXT: Binding assay for D2 receptor using [3H] spiperone
RUN CONDITIONS: test compound 100 nM, cell membrane expressing human D2 receptor, read-out: Binding inhibitory rate (%) for D2 receptor (100 nM)
inhibition at 0.1 µM by entry:
Output spec: scalar in %, unitless text.

CPD SMILES | MEASUREMENT TARGET | EXPERIMENTAL READOUT | VALUE REPORTED
O=C(NC[C@H]1CCCC[C@H]1CN1CCN(c2nsc3ccccc23)CC1)c1ccc2c(c1)OCO2 | human D2 receptor (Homo sapiens, UniProt P14416) | inhibition at 0.1 µM | 90
O=C(/C=C/c1ccc2c(c1)OCO2)NC[C@H]1CCC[C@@H]1CN1CCN(c2nsc3ccccc23)CC1 | human D2 receptor (Homo sapiens, UniProt P14416) | inhibition at 0.1 µM | 92

-- ask Annotate the compound O=C(/C=C/c1ccccc1[N+](=O)[O-])NC[C@H]1CCCC[C@@H]1CN1CCN(c2nsc3ccccc23)CC1 with its measured inhibition at 0.1 µM.
-- reply 90

-- ask Output measured inhibition at 0.1 µM for this item: O=C(/C=C/c1cccc(Cl)c1)NC[C@@H]1CCCC[C@H]1CN1CCC(c2noc3cc(F)ccc23)CC1
-- reply 92

-- ask Tell me inhibition at 0.1 µM reported for O=C(NC[C@H]1CCC[C@@H]1CN1CCN(c2nsc3ccccc23)CC1)c1cccc(Oc2ccccc2)c1
-- reply 93

-- ask State its inhibition at 0.1 µM for this compound: O=S(=O)(NC[C@H]1CCC[C@@H]1CN1CCN(c2nsc3ccccc23)CC1)c1cccc(-c2ccccc2)c1
-- reply 91

-- ask Output measured inhibition at 0.1 µM for this item: Cc1ccccc1/C=C/C(=O)NC[C@H]1CCCC[C@H]1CN1CCN(c2nsc3ccccc23)CC1
-- reply 91
